# reported inhibition of growth at 12.5 µM; entries follow
Tested on: Cryptococcus neoformans
Assay: Antifungal activity against Cryptococcus neoformans ATCC 32264 assessed as inhibition of fungal growth at 12.5 uM
Assay type: functional
Conditions: read-out: GI

Example cases with answers are listed next.
{"columns": ["compound", "inhibition of growth at 12.5 µM"],
 "data": [
  ["C[C@@H]1[C@H](O)[C@@H](C)/C=C/C=C/C=C/C=C/C=C/C=C/C=C/[C@H](O[C@@H]2O[C@H](C)[C@@H](O)[C@H](N)[C@@H]2O)C[C@@H]2O[C@](O)(C[C@@H](O)C[C@@H](O)[C@H](O)CC[C@@H](O)C[C@@H](O)CC(=O)O[C@H]1C)C[C@H](O)[C@H]2C(=O)O [AMPHOTERICIN B]", "100%"],
  ["CC[C@H](C)[C@H](NC(=O)[C@H](CCCCN)NC(=O)[C@@H](NC(=O)[C@H](CCC(N)=O)NC(=O)[C@@H](N)CCCNC(=N)N)[C@@H](C)CC)C(=O)N[C@@H](Cc1c[nH]c2ccccc12)C(=O)N[C@@H](Cc1ccccc1)C(=O)N[C@@H](CCC(N)=O)C(=O)N[C@@H](CC(N)=O)C(=O)N[C@@H](CCCNC(=N)N)C(=O)N[C@@H](CCCNC(=N)N)C(=O)N[C@@H](CCSC)C(=O)N[C@@H](CCCCN)C(=O)N[C@@H](Cc1c[nH]c2ccccc12)C(=O)N[C@@H](CCCCN)C(=O)N[C@@H](CCCCN)C(N)=O [PENETRATIN]", "90%"],
  ["CC(=O)N1CCN(c2ccc(OCC3COC(Cn4ccnc4)(c4ccc(Cl)cc4Cl)O3)cc2)CC1 (centres undefined) [KETOCONAZOLE]", "100%"]
]}

Field: next compound
# input compound: CC[C@H](C)[C@H](NC(=O)[C@H](CCCCN)NC(=O)[C@@H]1CCCN1C(=O)[C@H](CCC(N)=O)NC(=O)[C@@H](N)CCCNC(=N)N)C(=O)N[C@H](Cc1c[nH]c2ccccc12)C(=O)N[C@@H](Cc1ccccc1)C(=O)N1CCC[C@H]1C(=O)N[C@@H](CC(N)=O)C(=O)N[C@@H](CCCNC(=N)N)C(=O)N[C@@H](CCCNC(=N)N)C(=O)N[C@@H](CCCCN)C(=O)N1CCC[C@H]1C(=O)N[C@@H](Cc1c[nH]c2ccccc12)C(=O)N[C@@H](CCCCN)C(=O)N[C@@H](CCCCN)C(N)=O ; wanted: its inhibition of growth at 12.5 µM
100%
